The following molecules are listed with their measured IC50 values.
- MEASURED_TARGET: UniProtKB P15917
- Sequence (P15917 whole entry): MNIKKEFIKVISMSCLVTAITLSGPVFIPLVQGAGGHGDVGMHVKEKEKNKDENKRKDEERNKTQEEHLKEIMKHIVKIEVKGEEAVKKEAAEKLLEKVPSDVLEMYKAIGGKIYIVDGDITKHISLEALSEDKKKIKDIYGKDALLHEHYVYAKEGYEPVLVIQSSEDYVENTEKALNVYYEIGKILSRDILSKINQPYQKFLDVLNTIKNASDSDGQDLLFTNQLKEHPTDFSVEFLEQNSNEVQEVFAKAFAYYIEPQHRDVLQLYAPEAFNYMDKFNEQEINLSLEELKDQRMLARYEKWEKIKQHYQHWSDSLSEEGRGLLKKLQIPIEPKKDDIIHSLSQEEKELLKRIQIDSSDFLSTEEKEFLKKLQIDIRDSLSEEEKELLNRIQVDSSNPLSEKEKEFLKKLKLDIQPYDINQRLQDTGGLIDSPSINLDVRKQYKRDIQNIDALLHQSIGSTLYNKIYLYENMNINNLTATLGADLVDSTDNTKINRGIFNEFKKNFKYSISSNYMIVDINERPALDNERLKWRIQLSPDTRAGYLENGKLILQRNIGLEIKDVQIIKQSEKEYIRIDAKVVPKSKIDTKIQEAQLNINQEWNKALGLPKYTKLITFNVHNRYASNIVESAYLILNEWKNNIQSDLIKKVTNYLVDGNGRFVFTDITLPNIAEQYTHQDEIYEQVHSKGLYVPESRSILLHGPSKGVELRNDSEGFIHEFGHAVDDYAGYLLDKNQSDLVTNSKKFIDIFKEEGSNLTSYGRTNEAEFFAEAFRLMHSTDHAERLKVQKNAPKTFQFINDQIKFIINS
# unit: µM | format: bare number

In the examples that follow, each entry is paired with its recorded IC50.
- CS(=O)(=O)CS(=O)(=O)Nc1sccc1-c1nc2ccccc2s1: 19
- O=S(=O)(Nc1sccc1-c1nc2ccccc2s1)c1ccc(-c2ccc(Cl)c(Cl)c2)cc1: 7.2
- COc1ccc(-c2ccc(S(=O)(=O)Nc3scc(C)c3-c3nc4ccccc4s3)cc2)cc1: 21
- COc1ccc(S(=O)(=O)Nc2sccc2-c2nc3ccccc3s2)cc1: 18
- Cc1csc(NS(=O)(=O)c2cccc(OC(F)(F)F)c2)c1-c1nc2ccccc2s1: 11
- Cc1csc(NS(=O)(=O)c2ccc(Cl)cc2F)c1-c1nc2ccccc2s1: 19
- COc1ccc(-c2ccc(S(=O)(=O)Nc3sccc3-c3nc4ccccc4s3)cc2Cl)cc1: 3
- Cc1ccc(S(=O)(=O)Nc2scc(C)c2-c2nc3ccccc3s2)cc1Cl: 8.9
- O=S(=O)(Nc1sccc1-c1nc2ccccc2s1)c1ccc(-c2cncs2)cc1: 12
- CC(=O)Nc1ccc(S(=O)(=O)Nc2sccc2-c2nc3ccccc3s2)cc1: 24

Find IC50 (UniProtKB P15917) for the entry Cc1ccc(S(=O)(=O)Nc2sccc2-c2nc3ccccc3s2)cc1F 11

Which measured IC50 belongs to Cc1csc(NS(=O)(=O)c2cccc(-c3ccccc3)c2)c1-c1nc2ccccc2s1 , tested on UniProtKB P15917? 19

Form entry - test system: UniProtKB P15917; read-out: IC50; molecule: O=S(=O)(Nc1sccc1-c1nc2ccccc2s1)c1ccc(-n2cccn2)cc1 8

Give the reported IC50 for COc1ccc(-c2cccc(S(=O)(=O)Nc3scc(C)c3-c3nc4ccccc4s3)c2)cc1 (system: UniProtKB P15917). 16

Checklist item: IC50 tested on UniProtKB P15917, entry Cc1cc(C)n(-c2ccc(S(=O)(=O)Nc3sccc3-c3nc4ccccc4s3)cc2)n1 , value? 11

# value lookup — system UniProtKB P15917, readout IC50, item Cc1cc(S(=O)(=O)Nc2sccc2-c2nc3ccccc3s2)ccc1F 12

Hi! What's the reported IC50 for O=S(=O)(Nc1sccc1-c1nc2ccccc2s1)c1ccc(-c2ccc(OC(F)(F)F)cc2)cc1 on UniProtKB P15917? 3.9
